target.entity: ExtHD (Gallus gallus)
Construct: homeodomain plus 17-residue basic N-terminal extension (183-259); E. coli SE1, His6-Cherry fusion removed by PreScission, GPAS left at N-terminus (GPCAS with biotin-PEG2-maleimide for biotinylated form)
Sequence (Q05917 183-259): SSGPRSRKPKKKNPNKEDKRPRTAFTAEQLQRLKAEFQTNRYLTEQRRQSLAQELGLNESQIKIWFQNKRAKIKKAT
protocol.details: ITC, titration with POPG LUVs
reported.conditions: read-out: Kd^apparent
quantity.kind: Kd (µM)

| compound | quantity.unit | readout.value |
| --- | --- | --- |
| CCCCCCCC/C=C\CCCCCCCC(=O)O[C@H](COC(=O)CCCCCCCCCCCCCCC)COP(=O)(O)OCC(O)CO (mixture of isomers) [POPG] | µM | 6.8 |

* * *

target.entity: HD (Gallus gallus, UniProt Q05917)
Construct: homeodomain alone (200-259); E. coli SE1, His6-Cherry fusion removed by PreScission, GPAS left at N-terminus
Sequence (Q05917 200-259): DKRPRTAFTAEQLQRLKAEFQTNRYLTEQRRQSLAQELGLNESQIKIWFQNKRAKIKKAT
protocol.details: ITC, titration with POPG LUVs
reported.conditions: read-out: Kd^apparent
pKd: −log10 of the molar value.

| molecule | target.entity | pKd |
| --- | --- | --- |
| CCCCCCCC/C=C\CCCCCCCC(=O)O[C@H](COC(=O)CCCCCCCCCCCCCCC)COP(=O)(O)OCC(O)CO (mixture of isomers) [POPG] | HD (Gallus gallus, UniProt Q05917) | 5.12 |
